Test system: STAT3
protocol.summary: HCS STAT3 assay
Format: cell-based
assay.context: Table 4; read-out: STAT3 IC50 (converted)
Kindly state IC50 for each of the entries shown.

QUERY: Can you share its IC50? I mean this compound: Clc1ccc(C2=Nn3c(nnc3-c3[nH]nc4c3CCC4)SC2)cc1Cl
RESULT: 6.8 µM

QUERY: Query: IC50; subject: CC1=Nn2c(nnc2-c2cc(-c3ccccc3)n[nH]2)SC1 [12b]
RESULT: > 50 µM

QUERY: Bench note: what IC50 did c1ccc(-c2cc(-c3nnc4n3N=C(C3CCCCC3)CS4)[nH]n2)cc1 [13b] show?
RESULT: > 50 µM

QUERY: GET /values?readout=IC50&item= Clc1cccc(C2=Nn3c(nnc3-c3cc(-c4ccccc4)n[nH]3)SC2)c1
RESULT: 5.6 µM

###

Please go through the items and note down their IC50.
Tested on: STAT3
protocol.summary: HCS STAT3 assay
Assay type: cell-based
assay.context: Table 2; read-out: STAT3 (IC50)
Please provide the amount together with its unit, number first.

QUERY: Returns the measured IC50 for the input compound. Input: COc1cccc(C2=Nn3c(nnc3-c3cc(-c4ccc(Cl)cc4)n[nH]3)SC2C)c1 (stereo not shown) [compound 10535]
RESULT: 7 µM

QUERY: Fill blank: measured IC50 of the compound COc1ccc(C2=Nn3c(nnc3-c3cc(-c4ccccc4)nn3C(C)=O)SC2C)cc1 (stereo not shown) [compound 10480] is ____.
RESULT: 6.3 µM

QUERY: Need IC50, item CC(C)C1Sc2nnc(-c3cc(-c4ccccc4)n(C)n3)n2N=C1c1ccc(Cl)c(Cl)c1 (stereo not shown) [compound 10556]
RESULT: 27.3 µM

QUERY: # lookup: IC50 of COCCC1Sc2nnc(-c3cc(-c4ccc(F)cc4)n[nH]3)n2N=C1c1ccc(OC)cc1 (stereo not shown) [compound 10374]
RESULT: 8.5 µM

QUERY: Which measured IC50 value corresponds to CC1Sc2nnc(-c3[nH]nc4c3CCC4)n2N=C1c1ccc(C(F)(F)F)cc1 (stereo not shown) [compound 10470] ?
RESULT: 24.4 µM

QUERY: Return reported IC50; argument: CCOC(=O)CC1Sc2nnc(-c3cc(-c4ccccc4)n[nH]3)n2N=C1c1ccc(OC)cc1 (stereo not shown) [compound 10448]
RESULT: 15.5 µM

QUERY: Fill in the blank: the reported IC50 of COc1ccc(C2=Nn3c(nnc3-c3n[nH]c(-c4ccc(Cl)cc4)c3C)SC2C)cc1 (stereo not shown) [compound 10547] is ____.
RESULT: 7.3 µM

QUERY: Report IC50 for CC1(C)Sc2nnc(-c3cc(-c4ccccc4)n[nH]3)n2N=C1c1ccccc1 [compound 10264] please.
RESULT: 45.6 µM

QUERY: Entry under review: COc1cccc(C2=Nn3c(nnc3-c3cc(-c4cccc(Cl)c4)n[nH]3)SC2C)c1 (stereo not shown) [compound 10536] . Reported IC50?
RESULT: 9.1 µM

QUERY: For the compound COCCC1Sc2nnc(-c3cc(-c4ccc(Cl)cc4)n[nH]3)n2N=C1c1ccc(OC)cc1 (stereo not shown) [compound 10373] , what IC50 is on record?
RESULT: 33.2 µM

QUERY: Can you look up the measured IC50 of COc1ccc(C2=Nn3c(nnc3-c3[nH]nc4c3CCC4)SC2CC(C)C)cc1 (stereo not shown) [UPCDC10305] for me?
RESULT: 5.1 µM

QUERY: What does the data say about its IC50? Entry: CC1Sc2nnc(-c3[nH]nc4c3CCC4)n2N=C1c1ccc(F)c(F)c1 (stereo not shown) [compound 10510]
RESULT: 47.1 µM

QUERY: Tell me the measured IC50 of COc1ccc(C2=Nn3c(nnc3-c3[nH]nc4c3CN(Cc3ccccc3)C4)SC2C)cc1 (stereo not shown) [compound 10512] , please.
RESULT: 27 µM

QUERY: Fill in the blank: the reported IC50 of CC(C)C1Sc2nnc(-c3[nH]nc4c3CCC4)n2N=C1c1ccc(Cl)c(Cl)c1 (racemic) [compound 10299] is ____.
RESULT: 4.4 µM

QUERY: Need IC50 of CC1Sc2nnc(-c3cc(-c4ccc(Cl)cc4)n[nH]3)n2N=C1c1ccc(Cl)c(Cl)c1 (stereo not shown) [compound 10537] , thanks.
RESULT: 16 µM

QUERY: Using the record for CC1Sc2nnc(-c3cc(-c4ccccc4)n[nH]3)n2N=C1c1ccccc1 (stereo not shown) [compound 10260] , report its IC50.
RESULT: 4.8 µM
